So I've got a bunch of compounds here, and I need their fold change (FC) values.
Biological target: Peroxisome proliferator-activated receptor alpha (Homo sapiens) (UniProt Q07869)
Sequence (whole entry): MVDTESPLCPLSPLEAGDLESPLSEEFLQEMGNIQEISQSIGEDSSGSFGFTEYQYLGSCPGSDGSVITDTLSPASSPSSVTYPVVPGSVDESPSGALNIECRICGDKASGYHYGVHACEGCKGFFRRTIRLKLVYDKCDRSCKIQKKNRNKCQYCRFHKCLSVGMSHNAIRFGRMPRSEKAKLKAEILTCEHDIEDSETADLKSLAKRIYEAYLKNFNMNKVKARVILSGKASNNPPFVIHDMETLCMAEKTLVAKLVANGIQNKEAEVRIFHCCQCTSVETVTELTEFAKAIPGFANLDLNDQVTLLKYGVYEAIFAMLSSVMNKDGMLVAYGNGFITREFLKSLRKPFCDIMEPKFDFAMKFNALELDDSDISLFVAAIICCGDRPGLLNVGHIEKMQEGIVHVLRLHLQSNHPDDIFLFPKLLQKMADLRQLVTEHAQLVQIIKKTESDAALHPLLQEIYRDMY
Test: Agonist activity at human PPARalpha expressed in nonhuman mammalian cells assessed as maximal increase in receptor transcriptional activity incubated for 22 to 24 hrs by luciferase reporter gene assay relative to GW590735
Assay type: cell-based
Numbers only.

Some compounds with known fold change (FC) results, for comparison:
>>> recorded_measurement("O=C(O)c1cccc(NCc2ccc(OCc3ccc(C(F)(F)F)cc3)cc2)c1")
0.9
>>> recorded_measurement("CC(C)(Oc1cccc(NCc2ccc(OCc3ccc(F)cc3)cc2)c1)C(=O)O")
2
>>> recorded_measurement("COc1ccc(CCOc2ccc(CNc3cccc(C(=O)O)c3)cc2)cc1")
0.9
>>> recorded_measurement("COc1ccc(COc2ccc(CNc3cccc(OC(C)(C)C(=O)O)c3)cc2)cc1")
1.8
>>> recorded_measurement("Fc1ccc(COc2ccc(CNc3cccc(-c4nnn[nH]4)c3)cc2)cc1")
1.6

For each listed entry, give its fold change (FC).
1. CN(Cc1ccc(OCc2ccc(F)cc2)cc1)c1cccc(C(=O)O)c1
2. Cc1cc(OCc2ccc(F)cc2)ccc1CNc1cccc(C(=O)O)c1
3. Cc1cc(CNc2cccc(C(=O)O)c2)ccc1OCc1ccc(F)c(F)c1

output:
[1.7, 1.2, 1.6]

For each listed entry, give its fold change (FC).
1. O=C(O)c1cccc(NCc2ccc(OCc3ccc(F)c(F)c3)cc2)c1
2. O=C(O)c1cccc(NCc2ccc(OCc3cccc(F)c3)cc2)c1
3. CC(C)(Oc1ccc(CNc2cccc(C(=O)O)c2)cc1)c1ccc(F)cc1
4. Cc1cc(CNc2cccc(C(=O)O)c2)ccc1OCc1ccc(I)cc1
5. O=C(O)c1cccc(NCc2ccc(OCc3ccc(F)cc3F)cc2)c1
6. O=C(O)c1cccc(NCc2ccc(OCc3ccc(F)cc3)c(OCc3ccc(F)cc3)c2)c1
7. Cc1cc(CNc2cccc(C(=O)O)c2)ccc1OCc1ccc(Cl)cc1
8. O=C(O)c1cccc(NCc2ccc(OCc3ccc(Br)cc3)cc2)c1

output:
1.2
1.2
0.8
1.5
1.2
1.4
1.2
1.3

----------
Target: Peroxisome proliferator-activated receptor gamma (Homo sapiens)
Sequence (P37231 whole entry): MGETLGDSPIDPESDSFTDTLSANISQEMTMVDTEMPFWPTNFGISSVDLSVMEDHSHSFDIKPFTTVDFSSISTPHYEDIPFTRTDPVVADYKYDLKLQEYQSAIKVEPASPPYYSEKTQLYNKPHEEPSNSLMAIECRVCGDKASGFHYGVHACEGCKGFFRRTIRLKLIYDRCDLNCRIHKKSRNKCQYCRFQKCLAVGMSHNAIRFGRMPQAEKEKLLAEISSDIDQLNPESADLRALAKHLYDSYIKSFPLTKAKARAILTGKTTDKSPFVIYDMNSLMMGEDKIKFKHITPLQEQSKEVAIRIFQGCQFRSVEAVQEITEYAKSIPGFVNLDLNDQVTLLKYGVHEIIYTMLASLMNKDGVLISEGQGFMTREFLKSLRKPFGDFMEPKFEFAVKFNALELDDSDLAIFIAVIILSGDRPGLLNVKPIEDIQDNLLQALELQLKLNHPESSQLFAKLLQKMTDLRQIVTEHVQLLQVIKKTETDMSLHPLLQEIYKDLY
Assay: Agonist activity at human PPARgamma expressed in nonhuman mammalian cells assessed as increase in receptor transcriptional activity incubated for 22 to 24 hrs by luciferase reporter gene assay
pEC50: −log10 of the molar value.
PARAMETER MEASURED: pEC50

Some compounds with known pEC50 results, for comparison:
>>> recorded_measurement("O=C(O)c1cc(Br)cc(NCc2ccc(OCc3ccc(F)cc3)cc2)c1")
"< 4.00"
>>> recorded_measurement("O=C(O)c1cc(F)cc(NCc2ccc(OCc3ccc(F)cc3)cc2)c1")
"< 4.00"

For each listed entry, give its pEC50.
1. O=C(O)c1cccc(NCc2ccc(OCc3ccc(F)cc3F)cc2)c1
2. O=C(O)c1cccc(NCc2ccc(OCc3ccc(F)cc3)cc2)c1
3. COc1ccc(COc2ccc(CNc3cccc(C(=O)O)c3)cc2)cc1

output:
1: < 4.00; 2: < 4.00; 3: < 4.00
